Items are presented alongside their recorded FACS-Seq fitted mean (log10).
B1: library; a variant is named by its letters at N, in order (parent)
chain: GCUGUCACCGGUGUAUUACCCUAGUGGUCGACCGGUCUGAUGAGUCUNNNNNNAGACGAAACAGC

variants of: B1; test: FACS-Seq fitted mean relative fluorescence mCherry/BFP with ligand (log10 relative fluorescence); ligand: hypoxanthine (xanthine aptamer); ligand concentration (+) FACS-Seq: 5 mM; higher = higher reporter protein expression; conditions: HEK293T, ligand present: yes
Quick one: just the number, no unit, thanks!

Consider the worked cases shown below.
CCGGGC
0.382
GAGAGG
0.644
UGACAG
0.556
GUCGAA
0.22

Report measured FACS-Seq fitted mean (log10); entry is AUGAUG 0.458

Report measured FACS-Seq fitted mean (log10); entry is CGAUAA 0.637

Report measured FACS-Seq fitted mean (log10); entry is GGUUGC 0.345

Report measured FACS-Seq fitted mean (log10); entry is AAAUUC 0.603
